# EXPERIMENTAL TARGET: LRH-1 LBD (Homo sapiens, UniProt O00482)
# Construct: LRH-1 LBD (residues 299-541) in the pMSC7 vector was expressed in BL21 (DE3) pLysS E. coli; made in house; host or cells: E. coli BL21 (DE3) pLysS
# Sequence (O00482 299-541): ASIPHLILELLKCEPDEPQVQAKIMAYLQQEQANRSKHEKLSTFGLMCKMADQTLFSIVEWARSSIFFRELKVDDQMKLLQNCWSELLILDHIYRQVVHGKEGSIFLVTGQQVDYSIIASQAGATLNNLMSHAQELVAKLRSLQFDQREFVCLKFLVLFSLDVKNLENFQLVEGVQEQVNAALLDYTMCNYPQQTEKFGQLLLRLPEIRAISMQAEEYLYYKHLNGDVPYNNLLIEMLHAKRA
# ASSAY NOTES: Thermofluor (DSF) assay, purified LRH-1 LBD-His protein
# Type: binding
# TEST CONDITIONS: 50 μM compound; relative to DLPC-bound LRH-1; read-out: ΔTm (mean +/− SEM) (° C.)
Would you mind telling me the reported ΔTm at 50 µM of each entry?
Answers are plain numbers, in °C.

{"COMPOUND": "C=C(c1ccccc1)[C@@]12CC[C@@H](O)[C@@H]1CC(CCCCCCCCCCC(=O)O)=C2c1ccccc1 (relative stereo) [Compound 12f]", "MEASUREMENT UNIT": "°C", "ΔTm at 50 µM": 2.5}

Given item C=C(c1ccccc1)[C@@]12CC[C@@H](O)C1CC(CCCCCC)=C2c1cc(O)ccc1C (mixture of isomers) [Compound 17f] , the value recorded as its ΔTm at 50 µM is -1.9

----------
Provide the recorded Relative Efficacy for the entries that follow.
# EXPERIMENTAL TARGET: LRH-1 (Homo sapiens, UniProt O00482)
# Construct: The transfected plasmids included full-length LRH-1 in a pCI vector; expressed in transfected cells; host or cells: HeLa
# Sequence (O00482 whole entry): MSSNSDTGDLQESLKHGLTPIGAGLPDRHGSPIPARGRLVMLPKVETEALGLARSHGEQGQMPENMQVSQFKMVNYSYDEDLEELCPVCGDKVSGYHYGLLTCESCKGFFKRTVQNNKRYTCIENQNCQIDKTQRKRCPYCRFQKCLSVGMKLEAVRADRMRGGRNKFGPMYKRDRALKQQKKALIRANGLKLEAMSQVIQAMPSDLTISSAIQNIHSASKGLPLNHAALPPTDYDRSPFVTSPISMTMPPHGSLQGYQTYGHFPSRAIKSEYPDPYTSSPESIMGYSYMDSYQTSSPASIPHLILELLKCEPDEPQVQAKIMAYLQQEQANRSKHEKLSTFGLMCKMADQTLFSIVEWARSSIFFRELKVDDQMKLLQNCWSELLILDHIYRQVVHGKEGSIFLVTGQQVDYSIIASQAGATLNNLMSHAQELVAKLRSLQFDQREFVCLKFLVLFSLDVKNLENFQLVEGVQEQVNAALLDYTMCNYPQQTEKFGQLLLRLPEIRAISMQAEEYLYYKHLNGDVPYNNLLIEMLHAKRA
# ASSAY NOTES: Luciferase reporter assay (SHP-luc) in HeLa cells transfected with full-length LRH-1
# Assay type: cell-based
# TEST CONDITIONS: fold increase over baseline (DMSO-treated cells) relative to the fold increase induced by RJW100
# Method: EC50 and Relative Activity values were calculated from luciferase reporter assays.
Answers are plain numbers.

Recorded Relative Efficacy, per entry:
{"COMPOUND": "C=C(c1ccccc1)[C@@]12CC[C@@H](OC(=O)NS(=O)(=O)O)C1CC(CCCCCC)=C2c1ccccc1 (stereo partly drawn) [Compound 40-exo]", "Relative Efficacy": 0}
{"COMPOUND": "C=C(c1ccccc1)C12CCC(O)C1CC(CCCCCCCCCO)=C2c1ccccc1 (stereo not shown) [Compound 10e]", "Relative Efficacy": 1.30}
{"COMPOUND": "C=C(c1ccccc1)[C@@]12CC[C@@H](O)[C@@H]1CC(CCCCCCCCCCC(=O)O)=C2c1ccccc1 (relative stereo) [Compound 12f]", "Relative Efficacy": 1.74}
{"COMPOUND": "C=C(c1ccccc1)[C@@]12CC[C@@H](O)C1CC(CCCCCC)=C2c1cc(N)cc(F)c1 (mixture of isomers) [Compound 18g]", "Relative Efficacy": 0.99}
{"COMPOUND": "C=C(c1ccccc1)[C@@]12CC[C@@H](O)[C@@H]1CC(CCCCCCCCC(=O)O)=C2c1ccccc1 (relative stereo) [Compound 10f]", "Relative Efficacy": 3.39}

Would you be so kind as to report Relative Efficacy for each listed record?
1. C=C(c1ccccc1)[C@@]12CC[C@@H](O)[C@@H]1CC(CCCCCC(=O)O)=C2c1ccccc1 (relative stereo) [Compound 7f]
2. C=C(c1ccccc1)C12CC(O)C(O)C1CC(CCCCCC)=C2c1ccccc1 (stereo not shown) [Compound 52]

**Result**
[2.22, "−0.25"]

----------
# EXPERIMENTAL TARGET: LRH-1 (Homo sapiens, UniProt O00482)
# Construct: The transfected plasmids included full-length LRH-1 in a pCI vector; expressed in transfected cells; host or cells: HeLa
# ASSAY NOTES: Luciferase reporter assay (SHP-luc) in HeLa cells transfected with full-length LRH-1
# Format: cell-based
# TEST CONDITIONS: fold increase over baseline (DMSO-treated cells) relative to the fold increase induced by RJW100
Please go through the items and note down their Relative Efficacy.
Numbers only.

Check out these entries, answers already filled in.
{"COMPOUND": "C=C(c1ccccc1)[C@@]12CC[C@H](OS(C)(=O)=O)C1CC(CCCCCC)=C2c1ccccc1 (stereo partly drawn) [Compound 30-endo]", "EXPERIMENTAL TARGET": "LRH-1 (Homo sapiens, UniProt O00482)", "Relative Efficacy": 0.72}
{"COMPOUND": "C=C(c1ccccc1)[C@@]12CC[C@@H](OC(N)=O)C1CC(CCCCCC)=C2c1ccccc1 (stereo partly drawn) [Compound 29-exo]", "EXPERIMENTAL TARGET": "LRH-1 (Homo sapiens, UniProt O00482)", "Relative Efficacy": 0.14}

Each of the following entries comes with a recorded value; kindly state Relative Efficacy for each.
1. C=C(c1ccccc1)C12CCC(O)C1CC(CCCCC(=O)O)=C2c1ccccc1 (centres unmarked) [Compound 6f]
2. C=C(c1ccccc1)C12CC(O)C(CN)C1CC(CCCCCC)=C2c1ccccc1 (centres unmarked) [Compound 51]
3. C=C(c1ccccc1OC)[C@@]12CC[C@@H](O)C1CC(CCCCCC)=C2c1ccccc1 (mixture of isomers) [Compound 22]

**Result**
[0.60, 0.65, 0.42]
